biological target: chicken IgY (chicken); assay: BLI; Octet, SAX (streptavidin) biosensors; recombinant Fabs against IgY; KD from a kinetic 1:1 model, global fit over multiple concentrations (partial fits averaged for 3 low-affinity Fabs)

- binder: "clone 2.1 Fab TA_24 (Fab, V domains shown) VH: EVQLQESGPSLVKPSQTLSLTCSVTGDSITSGYWNWIRKFPGNKLEYMGYISYSGSTYYNPSLKSRISITRDTSKNQYYLQLNSVTTEDTATYYCARDFDVWGAGTTVTVSS VL: DIVMTQSQKFMSTSVGDRVSVTCKASQNVGTNVAWYQQKPGQSPKALIYSASYRYSGVPDRFTGSGSGTDFTLTISNVQSEDLAEYFCQQYYSYPLTFGSGTKLEIK"
  Kd, nM: 7.72
- binder: "clone 2.1 Fab TA_5 (Fab, V domains shown) VH: EVQLQESGPSLVKPSQTLSLTCSVTGASITSGYWNWIRKFPGNKLEYMGYISYSGSTYYNPSLKSRISITRDTSKNQYYLQLNSVTTEDTATYYCARDFDVWGAGTTVTVSS VL: DIVMTQSQKFMSTSVGDRVSVTCKASQNVGTNVAWYQQKPGQSPKALIYSASYRYSGVPDRFTGSGSGTDFTLTISNVQSEDLAEYFCQQYNSYPLTFGSGTKLEIK"
  Kd, nM: 3.81
